- Tested Target: Tyrosine-protein kinase Tec (Homo sapiens, UniProt P42680); also: in the data inactive means no Kd found up to 30 µM
- Sequence (P42680 whole entry): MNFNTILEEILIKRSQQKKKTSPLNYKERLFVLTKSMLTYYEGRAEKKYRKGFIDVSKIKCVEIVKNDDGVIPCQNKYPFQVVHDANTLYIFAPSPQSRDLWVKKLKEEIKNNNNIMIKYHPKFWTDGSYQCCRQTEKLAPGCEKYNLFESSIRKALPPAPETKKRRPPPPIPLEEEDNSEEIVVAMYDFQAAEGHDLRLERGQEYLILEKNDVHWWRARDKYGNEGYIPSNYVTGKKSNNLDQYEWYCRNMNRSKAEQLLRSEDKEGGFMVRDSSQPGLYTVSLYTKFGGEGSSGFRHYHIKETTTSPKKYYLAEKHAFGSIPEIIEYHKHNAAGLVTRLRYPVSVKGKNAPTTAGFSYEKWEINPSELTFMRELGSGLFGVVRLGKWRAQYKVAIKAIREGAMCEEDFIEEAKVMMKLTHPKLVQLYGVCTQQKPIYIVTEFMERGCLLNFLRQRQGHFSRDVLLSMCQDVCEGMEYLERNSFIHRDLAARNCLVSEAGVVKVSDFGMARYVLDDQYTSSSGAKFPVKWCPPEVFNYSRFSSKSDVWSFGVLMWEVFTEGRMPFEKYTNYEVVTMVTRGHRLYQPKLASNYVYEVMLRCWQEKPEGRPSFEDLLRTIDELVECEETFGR
The source made the active and inactive calls.
Possible outcomes: active, inactive

{"columns": ["Molecule", "Tested Target", "Class"],
 "data": [
  ["Cc1cc(Nc2nc(N[C@@H](C)c3ncc(F)cn3)ncc2Cl)n[nH]1", "Tyrosine-protein kinase Tec (Homo sapiens, UniProt P42680)", "inactive"],
  ["CN(c1ncccc1CNc1nc(Nc2ccc3c(c2)CC(=O)N3)ncc1C(F)(F)F)S(C)(=O)=O", "Tyrosine-protein kinase Tec (Homo sapiens, UniProt P42680)", "inactive"],
  ["S=C(NCc1ccc2c(c1)OCO2)N1CCN(c2ncnc3c2oc2ccccc23)CC1", "Tyrosine-protein kinase Tec (Homo sapiens, UniProt P42680)", "inactive"],
  ["CNC(=O)c1cc(COc2nnc(Nc3ccc(Cl)cc3)c3ccoc23)ccn1", "Tyrosine-protein kinase Tec (Homo sapiens, UniProt P42680)", "inactive"],
  ["COc1cc2ncnc(Nc3ccc(F)c(Cl)c3)c2cc1NC(=O)/C=C/CN1CCCCC1 [DACOMITINIB ANHYDROUS]", "Tyrosine-protein kinase Tec (Homo sapiens, UniProt P42680)", "inactive"],
  ["CCN(CCCOc1ccc2c(Nc3cc(CC(=O)Nc4cccc(F)c4)n[nH]3)ncnc2c1)CCOP(=O)(O)O", "Tyrosine-protein kinase Tec (Homo sapiens, UniProt P42680)", "inactive"],
  ["FC(F)(F)c1ccc(CNc2ccc(Cc3c[nH]c4ncc(Cl)cc34)cn2)cn1", "Tyrosine-protein kinase Tec (Homo sapiens, UniProt P42680)", "inactive"],
  ["C=CC(=O)Nc1cc(Nc2nccc(-c3cn(C)c4ccccc34)n2)c(OC)cc1N(C)CCN(C)C", "Tyrosine-protein kinase Tec (Homo sapiens, UniProt P42680)", "active"],
  ["O=S(=O)(c1cccc2c(O)nccc12)N1CCCNCC1 [HYDROXYFASUDIL]", "Tyrosine-protein kinase Tec (Homo sapiens, UniProt P42680)", "inactive"],
  ["O[C@H]1CC[C@H](Nc2ncc3nc(Nc4c(F)cc(F)cc4F)n([C@H]4CCOC4)c3n2)CC1", "Tyrosine-protein kinase Tec (Homo sapiens, UniProt P42680)", "inactive"],
  ["O=C(NOC[C@H](O)CO)c1ccc(F)c(F)c1Nc1ccc(I)cc1F", "Tyrosine-protein kinase Tec (Homo sapiens, UniProt P42680)", "inactive"],
  ["Cn1cc(-c2[nH]c3cc(NC(=O)[C@H](N)C4CCCCC4)cc4c3c2C=NNC4=O)cn1", "Tyrosine-protein kinase Tec (Homo sapiens, UniProt P42680)", "inactive"],
  ["Cc1ccc(C(=O)Nc2ccc(Oc3cc4cnn(C)c4cc3-c3cn[nH]c3)c(F)c2)c(=O)n1-c1ccc(F)cc1", "Tyrosine-protein kinase Tec (Homo sapiens, UniProt P42680)", "inactive"],
  ["c1cc(OCCN2CCCCC2)cc(-c2n[nH]c3ccc(-c4nc[nH]n4)cc23)c1", "Tyrosine-protein kinase Tec (Homo sapiens, UniProt P42680)", "inactive"],
  ["COc1ccc2c(OCc3nnc4ccc(-c5ccccc5)nn34)ccnc2c1", "Tyrosine-protein kinase Tec (Homo sapiens, UniProt P42680)", "inactive"],
  ["C=CCn1c(=O)c2cnc(Nc3ccc(N4CCN(C)CC4)cc3)nc2n1-c1cccc(C(C)(C)O)n1", "Tyrosine-protein kinase Tec (Homo sapiens, UniProt P42680)", "inactive"],
  ["CC(C)(O)CC(=O)NCCn1ccc2ncnc(Nc3ccc(Oc4cccc(C(F)(F)F)c4)c(Cl)c3)c21", "Tyrosine-protein kinase Tec (Homo sapiens, UniProt P42680)", "inactive"],
  ["CCOc1ccn(-c2ccc(F)cc2)c(=O)c1C(=O)Nc1ccc(Oc2ccnc(N)c2Cl)c(F)c1", "Tyrosine-protein kinase Tec (Homo sapiens, UniProt P42680)", "inactive"]
]}

* * *

Calls of active or inactive are those of the source.
Heads up, these compounds all have Kd values measured for Serine/threonine-protein kinase LATS1 (Homo sapiens).
Endpoint Name: Kd

{"columns": ["Compound", "Reported"],
 "data": [
  ["CCc1nc(C(N)=O)c(Nc2ccc(N3CCC(N4CCN(C)CC4)CC3)c(OC)c2)nc1NC1CCOCC1 [GILTERITINIB]", "0.221 µM (active)"],
  ["CNC(=O)c1ccc(Nc2ncc(C(F)(F)F)c(NCc3nccnc3N(C)S(C)(=O)=O)n2)cc1 [DEFACTINIB]", "9.05 µM (active)"],
  ["COc1cccc2cc(-c3nc([C@H]4CC[C@H](C(=O)O)CC4)n4ncnc(N)c34)[nH]c12 [OSI-027]", "> 30 µM (inactive)"],
  ["Cc1cc(Nc2nc(N[C@@H](C)c3ncc(F)cn3)ncc2Cl)n[nH]1 [AZD-1480]", "> 30 µM (inactive)"],
  ["O=C(NC[C@H](O)CO)c1ccncc1Nc1ccc(I)cc1F [PIMASERTIB]", "> 30 µM (inactive)"],
  ["O=C(Nc1ccc(OC(F)(F)F)cc1)c1sccc1NCc1ccnc2ccccc12 [OSI-930]", "> 30 µM (inactive)"],
  ["CC(C)CC(=O)Nc1[nH]nc2c1CN(C(=O)C1CCN(C)CC1)C2(C)C [PHA-793887]", "> 30 µM (inactive)"],
  ["O=S(=O)(c1cccc2c(O)nccc12)N1CCCNCC1 [HYDROXYFASUDIL]", "> 30 µM (inactive)"]
]}

* * *

- Tested Target: Calcium/calmodulin-dependent protein kinase type II subunit delta (Homo sapiens, UniProt Q13557); also: in the data inactive means no Kd found up to 30 µM
- Sequence (Q13557 whole entry): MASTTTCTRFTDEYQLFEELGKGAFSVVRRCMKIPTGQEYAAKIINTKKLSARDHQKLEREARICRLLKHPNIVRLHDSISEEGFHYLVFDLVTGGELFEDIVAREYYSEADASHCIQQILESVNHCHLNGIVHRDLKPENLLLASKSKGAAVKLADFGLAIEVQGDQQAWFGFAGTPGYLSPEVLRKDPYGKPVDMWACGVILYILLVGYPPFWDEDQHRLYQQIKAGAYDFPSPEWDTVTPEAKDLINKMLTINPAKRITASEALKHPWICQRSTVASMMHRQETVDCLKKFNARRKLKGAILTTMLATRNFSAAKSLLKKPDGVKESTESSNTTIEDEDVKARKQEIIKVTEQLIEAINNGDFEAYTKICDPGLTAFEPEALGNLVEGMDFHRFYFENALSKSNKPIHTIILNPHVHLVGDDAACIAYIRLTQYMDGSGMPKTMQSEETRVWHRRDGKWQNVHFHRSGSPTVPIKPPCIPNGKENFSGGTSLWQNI
Active and inactive are the calls of the source.
Possible outcomes: t for active, f for inactive

{"columns": ["Compound", "Class"],
 "data": [
  ["CC(C)CC(=O)Nc1[nH]nc2c1CN(C(=O)C1CCN(C)CC1)C2(C)C [PHA-793887]", "f"],
  ["CCc1nc(C(N)=O)c(Nc2ccc(N3CCC(N4CCN(C)CC4)CC3)c(OC)c2)nc1NC1CCOCC1 [GILTERITINIB]", "t"],
  ["Cc1cc(-c2cc(OC(=O)c3ccccc3)ccc2Cl)cc2nnc(Nc3ccc(OCCN4CCCC4)cc3)nc12 [TG100-801]", "f"],
  ["COc1cccc2cc(-c3nc([C@H]4CC[C@H](C(=O)O)CC4)n4ncnc(N)c34)[nH]c12 [OSI-027]", "f"],
  ["C=CC(=O)Nc1cccc(Nc2nc(Nc3ccc(N4CCN(C(C)=O)CC4)cc3OC)ncc2C(F)(F)F)c1 [ROCILETINIB]", "f"],
  ["CNC(=O)c1ccc(Nc2ncc(C(F)(F)F)c(NCc3nccnc3N(C)S(C)(=O)=O)n2)cc1 [DEFACTINIB]", "f"],
  ["CCN(CCCOc1ccc2c(Nc3cc(CC(=O)Nc4cccc(F)c4)n[nH]3)ncnc2c1)CCOP(=O)(O)O [BARASERTIB]", "f"]
]}

* * *

Active and inactive are the calls of the source.
Heads up, these molecules all have Kd values measured for Ribosomal protein S6 kinase alpha-5 (Homo sapiens).
Endpoint Name: Kd

{"columns": ["Molecule", "Tested Target", "Endpoint Name", "Reported"],
 "data": [
  ["Cc1cc(-c2cc(OC(=O)c3ccccc3)ccc2Cl)cc2nnc(Nc3ccc(OCCN4CCCC4)cc3)nc12", "Ribosomal protein S6 kinase alpha-5 (Homo sapiens)", "Kd", "> 30 µM (inactive)"],
  ["O=S(=O)(c1cccc2c(O)nccc12)N1CCCNCC1 [HYDROXYFASUDIL]", "Ribosomal protein S6 kinase alpha-5 (Homo sapiens)", "Kd", "> 30 µM (inactive)"],
  ["C=CCn1c(=O)c2cnc(Nc3ccc(N4CCN(C)CC4)cc3)nc2n1-c1cccc(C(C)(C)O)n1", "Ribosomal protein S6 kinase alpha-5 (Homo sapiens)", "Kd", "> 30 µM (inactive)"],
  ["CNC(=O)c1cc(COc2nnc(Nc3ccc(Cl)cc3)c3ccoc23)ccn1", "Ribosomal protein S6 kinase alpha-5 (Homo sapiens)", "Kd", "> 30 µM (inactive)"],
  ["Cn1cc(-c2[nH]c3cc(NC(=O)[C@H](N)C4CCCCC4)cc4c3c2C=NNC4=O)cn1", "Ribosomal protein S6 kinase alpha-5 (Homo sapiens)", "Kd", "> 30 µM (inactive)"],
  ["COc1cc2nccc(Oc3ccc(NC(=O)C4(C(=O)Nc5ccc(F)cc5)CC4)cc3)c2cc1OC [CABOZANTINIB]", "Ribosomal protein S6 kinase alpha-5 (Homo sapiens)", "Kd", "> 30 µM (inactive)"],
  ["NC(=O)c1ccc(N(C(N)=O)c2c(F)cccc2F)nc1-c1ccc(F)cc1F", "Ribosomal protein S6 kinase alpha-5 (Homo sapiens)", "Kd", "> 30 µM (inactive)"],
  ["Cc1cc(C(=O)Nc2cc(Oc3ccc4nc(NC(=O)C5CC5)cn4n3)ccc2C)n(C)n1", "Ribosomal protein S6 kinase alpha-5 (Homo sapiens)", "Kd", "> 30 µM (inactive)"]
]}

* * *

- Tested Target: Casein kinase II subunit alpha' (Homo sapiens, UniProt P19784); also: in the data inactive means no Kd found up to 30 µM
- Sequence (P19784 whole entry): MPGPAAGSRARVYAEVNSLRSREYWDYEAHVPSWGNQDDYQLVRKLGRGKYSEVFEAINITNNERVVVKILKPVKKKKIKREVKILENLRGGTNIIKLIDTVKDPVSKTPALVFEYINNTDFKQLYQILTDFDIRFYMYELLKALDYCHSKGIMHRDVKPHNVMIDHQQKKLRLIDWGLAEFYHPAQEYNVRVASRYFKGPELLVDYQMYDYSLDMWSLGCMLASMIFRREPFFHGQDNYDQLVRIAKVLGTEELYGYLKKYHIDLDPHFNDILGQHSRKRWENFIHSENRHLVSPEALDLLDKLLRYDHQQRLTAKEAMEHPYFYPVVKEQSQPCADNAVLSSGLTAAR
Calls of active or inactive are those of the source.
Possible outcomes: YES = active, NO = inactive

{"columns": ["Compound", "Class"],
 "data": [
  ["CCc1cc2c(cc1N1CCC(N3CCOCC3)CC1)C(C)(C)c1[nH]c3cc(C#N)ccc3c1C2=O [ALECTINIB]", "NO"],
  ["C#Cc1cccc(Nc2ncnc3cc4c(cc23)OCCOCCOCCO4)c1 [ICOTINIB]", "NO"],
  ["C=CC(=O)Nc1cc(Nc2nccc(-c3cn(C)c4ccccc34)n2)c(OC)cc1N(C)CCN(C)C [OSIMERTINIB]", "NO"],
  ["O=C(NC[C@H](O)CO)c1ccncc1Nc1ccc(I)cc1F [PIMASERTIB]", "NO"],
  ["C=CCN(/C=C1/C(=O)O[C@H](COC)[C@@]2(C)C1=C(O)C(=O)C1=C2[C@H](OC(C)=O)C[C@]2(C)C(=O)CC[C@@H]12)CC=C [SONOLISIB]", "NO"],
  ["Cc1cc(-c2cc(OC(=O)c3ccccc3)ccc2Cl)cc2nnc(Nc3ccc(OCCN4CCCC4)cc3)nc12 [TG100-801]", "NO"],
  ["CC(C)CC(=O)Nc1[nH]nc2c1CN(C(=O)C1CCN(C)CC1)C2(C)C [PHA-793887]", "NO"],
  ["COc1cccc2cc(-c3nc([C@H]4CC[C@H](C(=O)O)CC4)n4ncnc(N)c34)[nH]c12 [OSI-027]", "YES"]
]}

Reference for the values: ChEMBL document CHEMBL3991601
